- Tested on: OV90
- test_summary: Primary qHTS to identify gynecologic anti-cancer compounds using libraries of approved drugs and bioactive compounds (AID 1345084); further: nearly all actives have a fitted effect of over 55% in size
- applied_conditions: Gynecologic cancer cell panel viability, ATPlite luminescence, 48 h; series mostly up to 57.5 µM
Results filed as inconclusive are left out. Calls of active or inactive are those of the source. The call rests on the fitted dose curve; in most records, active means well fitted cell-killing curve with a large enough effect; inconclusive means small, poorly fitted or top-dose-only effect, or effect the other way; inactive means flat fitted curve, though single readings scatter.
Give one outcome, nothing more. List: Y for active, N for inactive

These recorded examples may help you get a feel for the data.
NC(=O)c1ncn2c1CN=C(c1ccccc1Br)c1cc(F)ccc1-2; N
CCOC(=O)C1(CCc2ccccc2)CCN(Cc2ccc(NC(C)=O)cc2)CC1; N
CCC1CC2CN3CCc4c([nH]c5ccccc45)C(C(=O)OC)(C2)C13 (stereo not drawn); N
O=C(OC[C@H]1O[C@@H](Oc2ccc(O)cc2CO)[C@H](O)[C@@H](O)[C@@H]1O)c1ccccc1; N
O=C(NCCN1CCC2(CC1)C(=O)NCN2c1cccc(F)c1)c1ccc2ccccc2c1; N

Call for entry COc1cc(N2CCN(C)CC2)ccc1N : N

Now the same for CN[C@@H]1C[C@H]2O[C@@](C)([C@@H]1OC)n1c3ccccc3c3c4c(c5c6ccccc6n2c5c31)C(=O)NC4 Y

Could you do the same for N#Cc1ccccc1-c1cc(-c2ccccn2)cn(-c2ccccc2)c1=O , please? N

Ok, now COc1ccc(C23CCC(=O)C=C2N(C)CC3)cc1OC (stereo not drawn) N

Can you check COC1CC(O[C@H]2CC[C@]3(C)C4CC[C@]5(C)[C@@H](C6=CC(=O)OC6)[C@@H](OC(C)=O)C[C@]5(O)C4CC[C@@H]3C2)OC(C)C1O[C@@H]1O[C@H](CO)[C@@H](O)[C@H](O)[C@H]1O (stereo partly drawn) next? Y

Let us now turn to FC(F)(F)c1ccc(N2CCNCC2)nc1Cl N

Also need CN1CCc2cc3c(cc2C1C1OC(=O)c2c1ccc1c2OCO1)OCO3 (stereo not drawn) , thanks. N

Next compound up: CN1CCC2=C(C1)c1ccccc1Cc1ccccc12 N

Proceed to C[C@@H](CN1CCC2(CC1)C(=O)NCN2c1cccc(F)c1)NC(=O)c1ccc(Br)cc1 N

###

- test_summary: qHTS for Inhibitors of the Functional Ribonucleoprotein Complex (vRNP) of Lassa (LASV) Arenavirus: Viability assay - alamar blue signal for LASV Primary Screen (AID 1347083); further: nearly all actives have a fitted effect of over 80% in size
- applied_conditions: cell viability, alamar blue fluorescence (LASV minigenome counter-screen); series mostly up to 57.5 µM
Records with an inconclusive call do not appear. Calls of active or inactive are those of the source. Calls come from the whole dose curve; tested in HEK293 reporter line.
Valid outcomes are listed here; reply with one: active, inactive

These solved cases illustrate the format of a correct answer.
SC1CCCC1; inactive
N#CC1(c2cccc(C(=O)Nc3cc(Oc4ccc5nc(NC(=O)C6CC6)sc5n4)ccc3F)c2Cl)CC1; inactive
CC(=O)OC(C)c1ccccc1 (configuration not stated); inactive

Just curious, what result did CO[C@H]1C[C@@H]2CC[C@@H](C)[C@@](O)(O2)C(=O)C(=O)N2CCCC[C@@H]2C(=O)O[C@H]([C@H](C)C[C@@H]2CC[C@H](OP(C)(C)=O)[C@H](OC)C2)CC(=O)[C@H](C)C=C(C)[C@@H](O)[C@@H](OC)C(=O)[C@H](C)C[C@H](C)C=CC=CC=C1C get here? active

Queued: C=C(C)[C@@]12OC3(c4ccccc4)O[C@@H]1[C@@H]1[C@@H]4O[C@]4(CO)[C@@H](O)[C@]4(O)C(=O)C(C)=C[C@H]4[C@@]1(O3)[C@H](C)[C@H]2OC(=O)/C=C/C=C/c1ccccc1 inactive

Now the molecule O=C1N[C@@H](Cc2cnc[nH]2)C(=O)N2CCC[C@@H]12 inactive

###

- test_summary: qHTS for Inhibitors of the Functional Ribonucleoprotein Complex (vRNP) of Lassa (LASV) Arenavirus: Viability assay - alamar blue signal for LASV Primary Screen (AID 1347083); further: nearly all actives have a fitted effect of over 80% in size
- applied_conditions: cell viability, alamar blue fluorescence (LASV minigenome counter-screen); series mostly up to 57.5 µM
Results filed as inconclusive are left out. Calls of active or inactive are those of the source. Calls come from the whole dose curve; tested in HEK293 reporter line.
Return exactly one item of 1 for active, -1 for inactive

O=C(O)CC[C@@H](C(=O)O)N1C(=O)c2ccccc2C1=O; -1
CO/N=C(\C(=O)N[C@@H]1C(=O)N2C(C(=O)O)=C(COC(C)=O)CS[C@H]12)c1csc(N)n1; -1
CSc1cccc(Nc2ncc3cc(-c4c(Cl)cccc4Cl)c(=O)n(C)c3n2)c1; -1
c1ccc2c(c1)-c1cccc3cccc-2c13; -1
N#Cc1cc(NC(=O)Nc2nnc(-c3ccncc3)s2)ccc1-c1cn[nH]c1; -1

Note: attention shifts to another entry.
How was COc1cc(C)ccc1C(C)C classified in this test? -1

###

- tested_on: Glucocorticoid receptor (Homo sapiens)
- test_summary: GR-GFP Redistribution (AID 450); further: potency means the concentration at half of the fitted maximal effect
- applied_conditions: U2OS GR-GFP nuclear translocation, laser cytometry, 2 h
Active and inactive are the calls of the source.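 Rule for the calls: active = compounds whose dose series gives a full or clear partial fitted curve of increased nuclear translocation; inconclusive = weak partial curve or effect only at the top dose; inactive = no dose-dependent translocation response.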
Reported Potency values for the following molecules.

CNCC/C=C\c1cccnc1; > 46 µM (inactive)

Can you share its Potency? I mean this molecule: Cc1c(C(=O)c2ccc3ccccc3c2)c2cccc3c2n1[C@H](CN1CCOCC1)CO3 > 46 µM (inactive)

Quick one: O=C1CS[C@@H](c2ccccc2Cl)c2cc(Cl)ccc2N1 > 46 µM (inactive)

Next entry: C/C(O)=C(/C#N)C(=O)Nc1cc(Br)ccc1Br > 46 µM (inactive)

Also c1ccc([C@H]2CNCc3ccccc32)cc1 , if possible. > 46 µM (inactive)

And the next one, CCCC(=O)OCC[N+](C)(C)C ? > 20.6 µM (inactive)

// same read-out, input: CCCN[C@@H]1CCc2c(OC)cccc2[C@@H]1C > 46 µM (inactive)

Another molecule: C[C@H](N)Cc1c[nH]c2ccc(OCc3cccs3)cc12 > 46 µM (inactive)

// repeat for Oc1ccc2c3c1O[C@H]1c4[nH]c5ccccc5c4C[C@]4(O)[C@H](C2)N(CC2CC2)CC[C@@]314 and report > 46 µM (inactive)

Try this molecule next: CN1C[C@H](CNC(=O)OCc2ccccc2)C[C@H]2c3cccc4c3c(cn4C)C[C@@H]21 > 20.6 µM (inactive)

Similarly, COc1cc(CCN)ccc1O ? > 46 µM (inactive)

Try CN(C(=O)Cc1ccc(Cl)c(Cl)c1)[C@H](CN1CCCC1)c1cccc(N=C=S)c1 next. > 46 µM (inactive)

###

- System: Nanoluciferase (engineered Oplophorus gracilirostris luciferase)
- test_summary: Primary Nanoluciferase (NLuc) qHTS assay for identification of artifact compounds. (AID 1845222);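 further: NLuc secreted into diluted conditioned medium of S16 cells; 0% = DMSO and -100% = no enzyme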
- applied_conditions: NLuc-conditioned medium, Nano-Glo luminescence, 5 min; series mostly up to 54.1 µM
Active and inactive are the calls of the source. Calls come from the whole dose curve; as a rule, active = well fitted inhibition curve with a large enough effect; inconclusive = small, poorly fitted or top-dose-only effect; inactive = flat fitted curve, though single readings scatter.
quantity: activity, negative = inhibition

Fc1cc(F)c2c(c1)C1C=CCC1C(c1cccnc1)N2 (stereo unspecified); inactive
C=C1[C@@H](C)C2[C@H](Cc3ccccc3)NC(=O)[C@@]23C(/C=C/C[C@H](C)C[C@@](C)(O)/C=C/[C@@H]3OC(C)=O)[C@@H]1O (stereo partly specified); inactive
CC[C@H]1C2CC3[C@@H]4N(C)c5ccccc5[C@]45C[C@@H]([C@H]2[C@H]5O)N3[C@@H]1O; inactive
Cc1ccc2c(c1)[C@H]1CN(C)CC[C@H]1N2C(=O)CSc1nnnn1-c1ccc(Cl)cc1; inactive
COC1CC(O[C@H]2CC[C@@]3(C)C(CCC4C3CC[C@]3(C)C(C5=CC(=O)OC5)CCC43O)C2)OC(C)C1OC1OC(COC2OC(CO)C(O)C(O)C2O)C(O)C(O)C1O (stereo partly specified); 0.592% [at 11.6 µM] (inactive)
C[C@@H]1C[C@@H](O)[C@]2(O)O[C@@H]3C[C@@]4(C=O)C(CC[C@@H]5C4CC[C@]4(C)[C@@H](C6=CC(=O)OC6)CC[C@]54O)C[C@H]3O[C@@H]2O1 (stereo partly specified); inactive
CC[C@@H]1/C=C/C=C/C[C@H](C)C(O)[C@](C)(O)C(=O)[C@H](C)C(O)[C@H](C)C(=O)[C@H](C)[C@@H](O)[C@H](C)/C=C/C(=O)O[C@H]2[C@@H](C)[C@@H](CC1)O[C@]1(O[C@H](C[C@H](C)O)[C@H](C)CC1=O)[C@@H]2C (stereo partly specified); -0.681% [at 11.6 µM] (inactive)
CCCCOC(=O)c1ccnc2cc(C(OCCN3CCCCC3)c3ccccc3Cl)sc12 (stereo unspecified); inactive

# get_value(readout= activity, negative = inhibition, system= Nanoluciferase (engineered Oplophorus gracilirostris luciferase)) for O=C1N[C@@H](Cc2ccccc2)CN2CCCC[C@@H]12 inactive

Now consider NC(=O)c1ncn2c1CN=C(c1ccccc1Br)c1cc(F)ccc1-2 and answer again. inactive

Can you handle CN1CCc2cc3c(cc2C1C1OC(=O)c2c1ccc1c2OCO1)OCO3 (stereo unspecified) next? inactive

Proceed to CCCCn1cc(C(=O)c2cccc3ccccc23)c2ccccc21 inactive

// next record O=C(NCCN1CCC2(CC1)C(=O)NCN2c1cccc(F)c1)c1ccc(F)c(F)c1 inactive

Also check CC1=CC2/C=C(\C)CCCC(O)/C=C/C(=O)OC23C(=O)NC(CC(C)C)C3C1C (stereo unspecified) inactive

Entry to check: Cc1ccccc1CN1CCC(N2CCC(n3c(=O)[nH]c4ccccc43)CC2)CC1 inactive

What do we get for C[C@@H]1CCC/C=C/[C@H]2C[C@@H](O)C[C@@H]2[C@@H](O)/C=C/C(=O)O1 ? inactive
